Tested on: SK-BR-3
TEST_PARAMETERS: 72 h
ATTRIBUTE_MEASURED: EC50, CellTiter-Glo (nM)

- SMILES: "CO[C@H]1C[C@@H]2CC[C@@H](C)[C@@](O)(O2)C(=O)C(=O)N2CCCC[C@H]2C(=O)O[C@H]([C@H](C)C[C@@H]2CC[C@@H](OP(C)(C)=O)[C@H](OC)C2)CC(=O)[C@H](C)/C=C(\\C)[C@@H](O)[C@@H](OC)C(=O)[C@H](C)C[C@H](C)/C=C/C=C/C=C/1C"
  ATTRIBUTE_MEASURED: "EC50, CellTiter-Glo"
  READING_QUALIFIER: "="
  RECORDED_RESULT: 0.78
- SMILES: "O=C(Nc1ccncc1)C(=O)c1cn(Cc2ccc(Cl)cc2)c2ccccc12"
  ATTRIBUTE_MEASURED: "EC50, CellTiter-Glo"
  READING_QUALIFIER: "="
  RECORDED_RESULT: 355
- SMILES: "CNC(=O)c1cc(Oc2ccc(NC(=O)Nc3ccc(Cl)c(C(F)(F)F)c3)c(F)c2)ccn1"
  ATTRIBUTE_MEASURED: "EC50, CellTiter-Glo"
  READING_QUALIFIER: ">"
  RECORDED_RESULT: 10000

----------
Test system: MCF-10A
ASSAY_METHOD_TEXT: normalised response (% of control), CellTox Green; higher = less cell death (100 = DMSO, 0 = benzethonium chloride kill control)
TEST_PARAMETERS: incubation time: 72 h

- COMPOUND: "O=C(/C=C/c1cccc(S(=O)(=O)Nc2ccccc2)c1)NO [Belinostat] (10000 nM)"
  MEASURE_UNIT: "%"
  normalised response: 54.6
- COMPOUND: "CNC(=O)c1ccc(N2C(=S)N(c3ccc(C#N)c(C(F)(F)F)c3)C(=O)C23CCC3)cc1F [RD162] (10000 nM)"
  MEASURE_UNIT: "%"
  normalised response: 111
- COMPOUND: "COc1cc2ncnc(Nc3ccc(F)c(Cl)c3)c2cc1OCCCN1CCOCC1 [Gefitinib] (10000 nM)"
  MEASURE_UNIT: "%"
  normalised response: 82.9
- COMPOUND: "CNC(=O)c1cccc(-c2ccc3c(N4CCOC[C@@H]4C)nc(N4CCOC[C@@H]4C)nc3n2)c1 [AZD2014] (100 nM)"
  MEASURE_UNIT: "%"
  normalised response: 51.3
- COMPOUND: "N#Cc1ccc(COC[C@H]2O[C@@H](n3c(NCc4ccc(Cl)c(Cl)c4)nc4c(N)ncnc43)[C@H](O)[C@@H]2O)cc1 (10000 nM)"
  MEASURE_UNIT: "%"
  normalised response: 103
- COMPOUND: "Oc1ccc2c(c1)CC[C@H](c1ccccc1)[C@@H]2c1ccc(OCCN2CCCC2)cc1 [Lasofoxifene] (100 nM)"
  MEASURE_UNIT: "%"
  normalised response: 111
- COMPOUND: "Oc1ccc2c(c1)CC[C@H](c1ccccc1)[C@@H]2c1ccc(OCCN2CCCC2)cc1 [Lasofoxifene] (10 nM)"
  MEASURE_UNIT: "%"
  normalised response: 107
- COMPOUND: "S=P(N1CC1)(N1CC1)N1CC1 [Thio-TEPA] (5000 nM)"
  MEASURE_UNIT: "%"
  normalised response: 109
- COMPOUND: "O=C(Nc1cccnc1)N1CCC(Cc2cccc(Oc3ccc(C(F)(F)F)cn3)c2)CC1 [PF-3845] (10000 nM)"
  MEASURE_UNIT: "%"
  normalised response: 103
- COMPOUND: "CC(C)C[C@@H](C(=O)N[C@H](C(=O)OC1CCCC1)c1ccccc1)[C@H](O)C(=O)NO [Tosedostat] (100 nM)"
  MEASURE_UNIT: "%"
  normalised response: 76

Values were extracted from the supplement of paper PMC4862054.
